System: MV-4-11 cells
method description: Inhibitory effect on MV-4-11 cells (CellTiter-Glo)
Assay type: cell-based
condition label: Homo sapiens, MV4-11; 72 hours, CellTiter-Glo; read-out: MV-4-11
measure name: IC50 (nM)
Just the number please, in nM, no unit attached.

CCS(=O)(=O)Nc1cc2c(cc1Cl)C(c1ccc(Cl)cc1)=N[C@@H](C)c1cc(=O)n(C)cc1-2 :: 1
Cn1cc2c(cc1=O)[C@H](CC(N)=O)N=C(c1ccc(Cl)cc1)c1ncccc1-2 :: 69

State its IC50 for this molecule: `C[C@@H]1N=C(c2ccc(F)cc2)c2ccc(CS(N)(=O)=O)cc2-c2cn(C)c(=O)cc21`
10

State its IC50 for this molecule: `Cn1cc2c(c1C(N)=O)CC(=O)N(c1ccc(F)cc1)c1ccc(CS(C)(=O)=O)cc1-2`
1440

----------
test target: BRD4 (BD2) (Homo sapiens)
Construct: Each member comprises two tandem bromodomains (BD1 and BD2) for recognizing the acetylated lysine residues
method description: BRD4 (BD2) bromodomain binding, HTRF
condition label: 2 h incubation at r.t.
# note: exactly 20 nM is not below, so it is false; use true for IC50 strictly under it

Worked cases, answers included:
CCS(=O)(=O)Cc1ccc2c(c1)-c1cn(C)c(=O)cc1[C@@H](C)N=C2c1ccc(F)cc1 [Compound 4033] :: false
CC[C@@H]1N=C(c2ccc(Cl)cc2)c2ccc(CS(=O)(=O)CC)cc2-c2cn(C)c(=O)cc21 [Compound 4047] :: true

Hello, I'm reviewing records and need to know if IC50 of CCS(=O)(=O)Nc1cc2c(cc1F)C(c1ccc(F)cc1)=NN(C)c1cc(=O)n(C)cc1-2 [Compound 4092] is below 20 nM. Could you check?
true

Hello, I'm reviewing records and need to know if IC50 of Cn1cc2c(c1C(N)=O)CC(=O)N(c1ccc(F)cc1)c1ccc(CS(C)(=O)=O)cc1-2 [Compound 4001] is below 20 nM. Could you check?
false

Hello, I'm reviewing records and need to know if IC50 of CCS(=O)(=O)Cc1ccc2c(c1)-c1cn(C)c(=O)cc1N(C)N=C2c1ccc(F)cc1 [Compound 4078] is below 20 nM. Could you check?
true

Hello, I'm reviewing records and need to know if IC50 of CCS(=O)(=O)Cc1ccc2c(c1)-c1cn(C)c(=O)cc1C1(CC1)N=C2c1ccc(F)cc1 [Compound 4041] is below 20 nM. Could you check?
true

----------
System: SU-DHL-6 cells
method description: Inhibitory effect on SU-DHL-6 cells (CellTiter-Glo)
Format: cell-based
condition label: Homo sapiens, SU-DHL-6, 72 h, read-out: SU-DHL-6
measure name: pIC50
Lab note — pIC50 values are minus log10 of concentrations in M.

State its pIC50 for this compound: Cc1sc2c(c1C)C(c1ccc(Cl)cc1)=N[C@@H](CC(=O)OC(C)(C)C)c1nnc(C)n1-2 [(+)-JQ1, reference compound]
6.70

----------
The entries below are paired with their reported log10 IC50.
System: MV-4-11 cells
method description: Inhibitory effect on MV-4-11 cells (CellTiter-Glo)
Assay type: cell-based
condition label: Homo sapiens, MV4-11; 72 hours, CellTiter-Glo; read-out: MV-4-11
Note: values are log10 of IC50 expressed in nM.

State its log10 IC50 for this molecule: CCNC(=O)Nc1ccc2c(c1)-c1cn(C)c(=O)cc1[C@H](C)N=C2c1ccc(F)cc1 [Compound 4051]
1.62

State its log10 IC50 for this molecule: CCS(=O)(=O)Cc1ccc2c(c1)-c1cn(C)c(=O)cc1[C@H](CC(N)=O)N=C2c1ccc(F)cc1 [Compound 4076]
2.06

State its log10 IC50 for this molecule: CCS(=O)(=O)Cc1cc2c(cc1OC)C(c1ccc(F)cc1)=N[C@@H](C)c1cc(=O)n(C)cc1-2 [Compound 4057]
0.60

State its log10 IC50 for this molecule: CCS(=O)(=O)Cc1ccc2c(c1)-c1cn(C)c(=O)cc1CN=C2c1ccc(Cl)cc1 [Compound 4011]
1.81

State its log10 IC50 for this molecule: CCS(=O)(=O)Nc1ccc2c(c1)-c1cn(C)c(=O)cc1CN=C2c1ccc(Cl)cc1 [Compound 4024]
0.95

State its log10 IC50 for this molecule: CC[C@@H]1N=C(c2ccc(F)cc2)c2cc(F)c(NS(=O)(=O)CC)cc2-c2cn(C)c(=O)cc21 [Compound 4066]
-0.40

----------
test target: BRD4 (BD1) (Homo sapiens, UniProt O60885)
Construct: Each member comprises two tandem bromodomains (BD1 and BD2) for recognizing the acetylated lysine residues
method description: BRD4 (BD1) bromodomain binding, HTRF
condition label: 2 h incubation at r.t.
# note: exactly 8 nM is not below, so it is not satisfied; use satisfied for IC50 strictly under it

Worked cases, answers included:
CCNC(=O)C[C@@H]1N=C(c2ccc(F)cc2)c2c(ccc(OC)c2F)-c2cn(C)c(=O)cc21 :: satisfied
CCS(=O)(=O)Cc1ccc2c(c1)-c1cn(C)c(=O)cc1[C@H](C1CC1)N=C2c1ccc(F)cc1 :: satisfied

Hello, I'm reviewing records and need to know if IC50 of `CCNC(=O)C[C@@H]1N=C(c2ccc(F)cc2)c2cc(OC)c(F)cc2-c2cn(C)c(=O)cc21` is below 8 nM. Could you check?
satisfied

Hello, I'm reviewing records and need to know if IC50 of `CCS(=O)(=O)Cc1ccc2c(c1)-c1cn(C)c(=O)cc1CN=C2c1cc(OC)c(F)cc1Cl` is below 8 nM. Could you check?
not satisfied

Hello, I'm reviewing records and need to know if IC50 of CNS(=O)(=O)C(C)c1ccc2c(c1)-c1cn(C)c(=O)cc1[C@H](C)N=C2c1ccc(F)cc1 (some centres unmarked) is below 8 nM. Could you check?
satisfied

Hello, I'm reviewing records and need to know if IC50 of `CCS(=O)(=O)Nc1ccc(Oc2ccc(F)cc2F)c(-c2cn(C)c(=O)c3[nH]ccc23)c1` is below 8 nM. Could you check?
satisfied

Hello, I'm reviewing records and need to know if IC50 of `CCNC(=O)C[C@@H]1N=C(c2ccc(F)cc2)c2ccc(CS(=O)(=O)CC)cc2-c2cn(C)c(=O)cc21` is below 8 nM. Could you check?
satisfied

----------
method description: Metabolic stability in mouse liver microsomes
Assay type: in vitro ADME
condition label: pH 7.4; mouse liver microsomes 0.5 mg/mL, NADPH, 37° C.; read-out: MLM_CLint
measure name: log10 CLint scaled at 1 µM (log10 of the value in mL/min/kg)
Note: values are log10 of CLint scaled at 1 µM expressed in mL/min/kg.

Example entries and their recorded answers appear below.
CCNC(=O)C[C@@H]1N=C(c2ccc(Cl)cc2)c2ccccc2-c2cn(C)c(=O)cc21 :: 2.41
Cn1cc2c(cc1=O)CN=C(c1ccc(F)cc1)c1ccc(CS(C)(=O)=O)cc1-2 :: 0.83
Cn1cc2c(cc1=O)[C@H](CC(N)=O)N=C(c1ccc(Cl)cc1)c1ccccc1-2 :: 1.40

State its log10 CLint scaled at 1 µM for this compound: `CCS(=O)(=O)Cc1ccc2c(c1)-c1cn(C)c(=O)cc1N(C)N=C2c1ccc(F)cc1`
1.45

State its log10 CLint scaled at 1 µM for this compound: `CNS(=O)(=O)Cc1ccc2c(c1)-c1cn(C)c(=O)cc1[C@H](C)N=C2c1ccc(F)cc1`
1.17

State its log10 CLint scaled at 1 µM for this compound: `CCS(=O)(=O)Nc1ccc(Oc2ccc(F)cc2F)c(-c2cn(C)c(=O)c3[nH]ccc23)c1`
1.83

State its log10 CLint scaled at 1 µM for this compound: `CCNC(=O)C[C@@H]1N=C(c2ccc(F)cc2)c2cc(OC)ccc2-c2cn(C)c(=O)cc21`
1.86

State its log10 CLint scaled at 1 µM for this compound: `CCS(=O)(=O)Cc1ccc2c(c1)-c1cn(C)c(=O)cc1CN=C2c1ccc(F)cc1`
0.97

State its log10 CLint scaled at 1 µM for this compound: `CCS(=O)(=O)Cc1ccc2c(c1)-c1cn(C)c(=O)cc1CN=C2c1ccc(Cl)cc1`
0.71

State its log10 CLint scaled at 1 µM for this compound: `Cn1cc2c(c1C(N)=O)CCN(c1ccc(F)cc1)c1ccc(CS(C)(=O)=O)cc1-2`
2.37

State its log10 CLint scaled at 1 µM for this compound: `C[C@@H]1N=C(c2ccc(F)cc2)c2ccc(CS(=O)(=O)N(C)C)cc2-c2cn(C)c(=O)cc21`
1.54

State its log10 CLint scaled at 1 µM for this compound: `CCS(=O)(=O)Cc1ccc2c(c1)-c1cn(C)c(=O)cc1CN=C2c1ccc(F)cc1F`
0.54

State its log10 CLint scaled at 1 µM for this compound: `CCS(=O)(=O)Nc1ccc2c(c1)-c1cn(C)c(=O)cc1CN=C2c1ccc(F)cc1`
1.19
